# Test system: Muscle tissue
# EXPERIMENT_SUMMARY: Biodistribution in ICR mouse muscle at 5 to 10 uCi, iv after 2 mins
# Format: ADME, organism-based
# MEASUREMENT_SETUP: in vivo
RESULT_TYPE: Drug uptake (% ID/g)
Quick note: give the figure in % ID/g, leave out the unit.

What value of Drug uptake has been reported for the following compound? `CN(C)c1ccc(-c2cn(-c3ccc(OCC[18F])cc3)nn2)cc1`
0.73

What value of Drug uptake has been reported for the following compound? `CNc1ccc(-c2cn(-c3ccc([125I])cc3)nn2)cc1`
0.83

What value of Drug uptake has been reported for the following compound? `CN(C)c1ccc(-c2cn(-c3ccc(OCCC[18F])cc3)nn2)cc1`
0.89

What value of Drug uptake has been reported for the following compound? `CN(C)c1ccc(-c2cn(-c3ccc([125I])cc3)nn2)cc1`
0.76
